- Tested on: BT-474
- ASSAY_COMMENT: Cytotoxicity against cancer stem cells derived from human BT474 cells assessed as cancer stem cell death at 7.5 uM after 3 days by MTS assay
- Format: functional
ENDPOINT: Activity (%)
Give bare numbers, in %.

compound="COc1cccc2c1C(=O)c1c(O)c3c(c(O)c1C2=O)C[C@@](O)(C(=O)CO)C[C@@H]3O[C@H]1C[C@H](N)[C@H](O)[C@H](C)O1.Cl [DOXORUBICIN HYDROCHLORIDE]" study_system=BT-474 endpoint=Activity unit_label=% readout_value=75

// next item, Activity requested
-- ask Entry under review: `CC[C@@H](C(=O)[C@@H](C)[C@@H](O)[C@H](C)[C@@H]1O[C@@H]([C@@H](CC)C(=O)O)CC[C@@H]1C)[C@H]1O[C@]2(C=C[C@@H](O)[C@]3(CC[C@@](C)([C@H]4CC[C@](O)(CC)[C@H](C)O4)O3)O2)[C@H](C)C[C@@H]1C` . Reported Activity?
-- reply 60

====

- System: MDA-MB-231
- ASSAY_COMMENT: Cytotoxicity against human MDA-MB-231 cells assessed as decrease in cell viability after 48 hrs by MTS assay
- Assay type: functional
- CONDITIONS_USED: MDA-MB-231, 48 h
ENDPOINT: CC50

Provide reported CC50 for each item, in the same order as listed.
1. CCCCCCCCCCCCCCCCOC[C@H](CO[C@@H]1O[C@@H](CN)[C@H](OCc2ccccc2)[C@@H](O)[C@@H]1N)OC
2. CCCCCCCCCCCCCCCCOC[C@H](CO[C@H]1O[C@H](CO)[C@@H](O)[C@H](O)[C@H]1N)OC
3. CCCCCCCCCCCCCCCCOC[C@H](CO[C@@H]1O[C@H](CO)[C@@H](O)[C@H](O)[C@H]1N)OC
4. CCCCCCCCCCCCCCCCOC[C@H](CO[C@@H]1O[C@@H](CN)[C@H](O)[C@@H](O)[C@@H]1N)OC
5. CCCCCCCCCCCCCCCCOC[C@H](CO[C@@H]1O[C@H](CN)[C@@H](OCc2ccccc2)[C@H](O)[C@H]1N)OC

-- reply
2 to 6 µM
6 to 10.5 µM
6.5 to 13 µM
4 to 11 µM
2 to 6 µM
